# System: E. coli ATCC25922
# measurementDescription: Antibacterial activity in combination with minocycline (growth inhibition)
# Type: cell-based
# testParameters: Escherichia coli, ATCC25922, compound at 25 μM; minocycline 0.25 μg/mL; OD625 23 h minus 1 h; read-out: residual growth of E. coli ATCC25922 (% of uninhibited control) with minocycline
endpointName: activity at 25 µM

For reference, reported activity at 25 µM for O=C(O)c1ccc(COc2cc(CNCC3CCNC3)cc(OCc3ccc(Cl)cc3Br)c2)cc1 (stereo not drawn) stands at ≤ 10%

For reference, reported activity at 25 µM for Clc1ccc(COc2cccc(CNCC3CCNC3)c2)c(Cl)c1 (stereo not drawn) stands at ≤ 10%

For reference, reported activity at 25 µM for "CC(C)(C)c1cc(CNCC2CNC2)cc(OCc2ccc(Cl)cc2Br)c1" stands at ≤ 10%

For reference, reported activity at 25 µM for "C=CCOc1cc(/C=C/c2ccc(C#N)c(C(F)(F)F)c2)cc(CNCC2CNC2)c1" stands at ≤ 10%

For reference, reported activity at 25 µM for Clc1ccc(COc2cc(CNCC3CCNC3)cc(OCCN3CCOCC3)c2)c(Br)c1 (stereo not drawn) stands at ≤ 10%

For reference, reported activity at 25 µM for NCC1CCC(CNCc2cccc(OCc3ccc(Cl)cc3Br)c2)N1 (stereo not drawn) stands at ≤ 10%

For reference, reported activity at 25 µM for Clc1ccc(OCc2cccc(CNCC3CNCCO3)c2)c(Br)c1 (stereo not drawn) stands at ≤ 10%

For reference, reported activity at 25 µM for Clc1ccc(/C=C/c2cc(Cl)ccc2OCCCNCC2CCNC2)c(Br)c1 (stereo not drawn) stands at ≤ 10%

For reference, reported activity at 25 µM for "Fc1cc(Br)ccc1COc1ccc(CNCC2CCNCC2)cc1" stands at ≤ 10%

For reference, reported activity at 25 µM for NC(=O)COc1cc(/C=C/c2ccc(Cl)cc2Br)cc(CNCC2CCNC2)c1 (stereo not drawn) stands at ≤ 10%

For reference, reported activity at 25 µM for CC(C)COc1cc(CNCC2CCNC2)cc(OCc2ccc(C(F)(F)F)cc2C(F)(F)F)c1 (stereo not drawn) stands at ≤ 10%

For reference, reported activity at 25 µM for Clc1ccc(/C=C\c2cc(CNCC3CCNC3)cc(OCCc3ccncc3)c2)c(Br)c1 (stereo not drawn) stands at ≤ 10%

For reference, reported activity at 25 µM for CC(C)COc1cc(CNCC2CCNC2)cc(OCc2ccc(Cl)cc2C(F)(F)F)c1 (stereo not drawn) stands at ≤ 10%

For reference, reported activity at 25 µM for C=CCOc1cc(/C=C/c2ccc(C#N)cn2)cc(CNCC2CCNC2)c1 (stereo not drawn) stands at ≤ 10%

For reference, reported activity at 25 µM for Cn1cnc(COc2cc(/C=C/c3ccc(Cl)cc3Br)cc(CNCC3CCNC3)c2)c1 (stereo not drawn) stands at ≤ 10%

For reference, reported activity at 25 µM for CC(C)(c1ccccc1)c1ccc(OCCCNCC2CCNC2)cc1 (stereo not drawn) stands at ≤ 10%

For reference, reported activity at 25 µM for "Clc1cc(CNCC2CNC2)cc(OCc2ccc(Cl)cc2Br)c1" stands at ≤ 10%

For reference, reported activity at 25 µM for CC(C)COc1cc(CNCC2CCNC2)cc(OCc2ccc(F)cc2C(F)(F)F)c1 (stereo not drawn) stands at ≤ 10%

###

# Tested on: E. coli ATCC25922
# measurementDescription: Antibacterial activity in combination with minocycline (growth inhibition)
# Type: cell-based
# testParameters: Escherichia coli, ATCC25922, compound at 25 μM; minocycline 0.25 μg/mL; OD625 23 h minus 1 h; read-out: residual growth of E. coli ATCC25922 (% of uninhibited control) with minocycline
endpointName: activity at 25 µM

For reference, reported activity at 25 µM for "Clc1ccc(/C=C/c2cc(CNCC3CNC3)cc(OCCN3CCOCC3)c2)c(Br)c1" stands at ≤ 10%

For reference, reported activity at 25 µM for "Clc1ccc(/C=C/c2ccc(OCCc3c[nH]cn3)c(CNCC3CNC3)c2)c(Br)c1" stands at ≤ 10%

For reference, reported activity at 25 µM for Clc1cc(/C=C/c2ccc(Cl)cc2Br)cc(CNCC2CCNC2)c1 (stereo not shown) stands at ≤ 10%

For reference, reported activity at 25 µM for "Clc1ccc(/C=C/c2cc(CNCC3CNC3)cc(OCc3ccccc3)c2)c(Br)c1" stands at ≤ 10%

For reference, reported activity at 25 µM for Cc1nc(COc2cc(/C=C/c3ccc(Cl)cc3Br)cc(CNCC3CCNC3)c2)cs1 (stereo not shown) stands at ≤ 10%

For reference, reported activity at 25 µM for "Clc1ccc(COc2ccccc2CNCC2CNC2)c(Br)c1" stands at ≤ 10%

For reference, reported activity at 25 µM for Clc1ccc(Oc2cccc(CNCC3CCNC3)c2)c(Br)c1 (stereo not shown) stands at ≤ 10%

For reference, reported activity at 25 µM for "Clc1ccc(OCc2cccc(CNCC3CNC3)c2)c(Br)c1" stands at ≤ 10%

For reference, reported activity at 25 µM for "CC(C)(C)c1ccc(/C=C/c2cccc(CNCC3CNC3)c2)cc1" stands at ≤ 10%

For reference, reported activity at 25 µM for "Clc1ccc(/C=C/c2cccc(CNCC3CNC3)c2)c(Br)c1" stands at ≤ 10%

For reference, reported activity at 25 µM for C=CCOc1ccc(OCc2ccc(Cl)cc2Br)cc1CNCC1CCNC1 (stereo not shown) stands at ≤ 10%

For reference, reported activity at 25 µM for CC(C)COc1cc(CNCC2CCNC2)cc(OCc2ccc(F)nc2F)c1 (stereo not shown) stands at ≤ 10%

For reference, reported activity at 25 µM for CC(C)COc1ccc(/C=C/c2ccc(Br)cc2Cl)cc1CNCC1CCNC1 (stereo not shown) stands at ≤ 10%

For reference, reported activity at 25 µM for "C=CCOc1cc(/C=C/c2ccc(C(F)(F)F)c(C#N)c2)cc(CNCC2CNC2)c1" stands at ≤ 10%

For reference, reported activity at 25 µM for "C=CCOc1ccc(OCc2ccc(Br)cc2Cl)cc1CNCC1CNC1" stands at ≤ 10%

For reference, reported activity at 25 µM for "C=CCOc1cc(CNCC2CNC2)cc(OCc2ccc(Cl)cc2Br)c1" stands at ≤ 10%

For reference, reported activity at 25 µM for Clc1ccc(/C=C/c2ccccc2OCCCNCC2CCNC2)c(Br)c1 (stereo not shown) stands at ≤ 10%

For reference, reported activity at 25 µM for "C=CCOc1cc(/C=C/c2cccnc2)cc(CNCC2CNC2)c1" stands at ≤ 10%

For reference, reported activity at 25 µM for "C=CCOc1cc(CNCC2CNC2)cc(CNC(=O)c2ccc(Cl)cc2Br)c1" stands at ≤ 10%

###

# Tested on: E. coli ATCC25922
# measurementDescription: Antibacterial activity in combination with minocycline (growth inhibition)
# Format: cell-based
# testParameters: Escherichia coli, ATCC25922, compound at 25 μM; minocycline 0.25 μg/mL; OD625 23 h minus 1 h; read-out: residual growth of E. coli ATCC25922 (% of uninhibited control) with minocycline
Assign activity at 25 µM to each entry below.

For reference, reported activity at 25 µM for "Clc1ccc(/C=C\c2cc(CNCC3CNC3)cc(OCCc3ccncc3)c2)c(Br)c1" stands at ≤ 10%

For reference, reported activity at 25 µM for "C=CCOc1cc(/C=C/c2ccccn2)cc(CNCC2CNC2)c1" stands at ≤ 10%

For reference, reported activity at 25 µM for Ic1cccc(COc2cccc(CNCC3CCNC3)c2)c1 (stereo not drawn) stands at ≤ 10%

For reference, reported activity at 25 µM for "COCc1cc(CNCC2CNC2)cc(OCc2ccc(Cl)cc2Br)c1" stands at ≤ 10%

For reference, reported activity at 25 µM for Fc1cc(Br)ccc1COc1ccc(CNCC2CCNC2)cc1 (stereo not drawn) stands at ≤ 10%

For reference, reported activity at 25 µM for "C=CCOc1cc(/C=C/c2ccc(OC)cc2)cc(CNCC2CNC2)c1" stands at ≤ 10%

For reference, reported activity at 25 µM for "Clc1cc(/C=C/c2ccc(Cl)cc2Br)cc(CNCC2CNC2)c1" stands at ≤ 10%

For reference, reported activity at 25 µM for "N#Cc1ccc(/C=C/c2cccc(CNCC3CNC3)c2)cc1C(F)(F)F" stands at ≤ 10%

For reference, reported activity at 25 µM for CC(C)(C)c1ccc(S(=O)(=O)NCc2cc(CNCC3CCNC3)cc(OCCc3c[nH]cn3)c2)cc1 (stereo not drawn) stands at ≤ 10%

Every entry's value here was drawn from patent US10464896B2.
